// data source = PubChem BioAssay (NCI)

Listed here: items and their measured growth inhibition.
- METHOD: NCI Yeast Anticancer Drug Screen. Data for the rad50 strain (AID 155);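 further: 0% = growth of vehicle-only cultures of the same strain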
- CONDITION_PARAMETERS: S. cerevisiae rad50 strain growth inhibition, hits give high values; at 50.0 µM unless noted
This is part of a sample that, as a whole, favours compounds with a hit. Of some 79,000 tested, about 15% had one in any assay.
The reply should be a number in %, with the unit left off.

- COMPOUND: "CCCCCCSC(=O)NC(C)=O"
  growth inhibition (%): -10.3

Consider the compound CSC(=Nc1ccccc1Cl)NC(=O)c1ccc(Br)cc1 . State its measured growth inhibition.
-9.65

Note growth inhibition for the compound shown: ClCCCSSCCCCl
24.1

Look up growth inhibition of CN(C)c1ccc(/C=C(\NC(=O)c2ccccc2)c2nc3ccccc3c(=O)o2)cc1 and report it.
8.45

Give me measured growth inhibition, please, for this compound: CCOC(=O)c1ccc(N/C(C)=C/C(=O)OC)cc1
3.45

Tell me its growth inhibition given C[N+]1(Cc2csc(-c3ccc(Cl)cc3)n2)CCCC1 as the entry.
-12.5

Entry Nc1nc(N)c2nc(SC34CC5CC(CC(C5)C3)C4)c(N)nc2n1 needs its growth inhibition filled in; supply it.
-1.6

Give a short answer stating reported growth inhibition for Cc1cccc(Cl)c1NC(=O)c1c(Cl)c(Cl)c(Cl)c(Cl)c1C(=O)O .
11.4

Find the measured growth inhibition of C=CCCC(CCC=C)(C(=O)O)C(=O)O and report it.
-7.1
